Tested target: soluble guanylate cyclase (sGC) (Rattus norvegicus, UniProt P20595)
Procedure details: Stimulation of sGC enzyme activity (PPi detection, luciferase luminescence)
Conditions used: read-out: EC50 (half-maximal effective concentration), activating action at the sGC enzyme in vitro
Structures can show the parent of a compound that is named as a salt.
Quantity name: EC50 (µM)

Compound	Unit text	EC50
CCC1CCN([C@@H](C(=O)Nc2cc(CC3(C(=O)O)CC3)ccc2F)[C@@H](C)C(F)(F)F)CC1 (single isomer, unassigned)	µM	0.0079
O=C(Nc1cc(CC2(C(=O)O)CC2)ccc1F)C(C1CCCC1)N1CCc2ccccc2C1 (racemic) [Example 53, trifluoroacetate]	µM	0.84

P: CC1CCN([C@@H](C(=O)Nc2cc([C@H](C)CC(=O)O)ccc2Cl)[C@@H](C)C(F)(F)F)CC1 (single isomer, unassigned)
Q: CCC1CCN(C(C(=O)Nc2cc(CC3(C(=O)O)CC3)ccc2F)C(C)C(F)(F)F)CC1 (single isomer, unassigned)
R: CC1CCN([C@@H](C(=O)Nc2cc(C[C@H](C)C(=O)O)ccc2Cl)[C@@H](C)C(F)(F)F)CC1
S: C[C@H]([C@H](C(=O)Nc1cc(CCC(=O)O)ccc1F)N1CCC(C2CC2)CC1)C(F)(F)F
# rank by EC50, ascending (min first) Labels, requested order.
Q, P, R, S
(Q: 0.021 µM, P: 0.033 µM, R: 0.21 µM, S: 0.54 µM)

###

Tested target: soluble guanylate cyclase (sGC) (Rattus norvegicus)
Procedure details: Stimulation of sGC enzyme activity (PPi detection, luciferase luminescence)
Conditions used: read-out: EC50 (half-maximal effective concentration), activating action at the sGC enzyme in vitro
Quantity name: EC50 (nM)

I: C[C@H]([C@H](C(=O)Nc1cc(CC2(C(=O)O)CC2)ccc1Cl)N1CCC2(CC1)CC2)C(F)(F)F [Example 25]
II: CCC1CCN(C(C(=O)Nc2cc(CCC(=O)O)ccc2Cl)C(C)C(F)(F)F)CC1 (single isomer, unassigned) [Example 11]
Which of the two items, I and II , has the greater recorded EC50? Let me know the label of the one you choose.
II
(II: 390 nM, I: 15 nM)

###

Tested target: soluble guanylate cyclase (sGC) (Rattus norvegicus)
Sequence (P20595 1-619): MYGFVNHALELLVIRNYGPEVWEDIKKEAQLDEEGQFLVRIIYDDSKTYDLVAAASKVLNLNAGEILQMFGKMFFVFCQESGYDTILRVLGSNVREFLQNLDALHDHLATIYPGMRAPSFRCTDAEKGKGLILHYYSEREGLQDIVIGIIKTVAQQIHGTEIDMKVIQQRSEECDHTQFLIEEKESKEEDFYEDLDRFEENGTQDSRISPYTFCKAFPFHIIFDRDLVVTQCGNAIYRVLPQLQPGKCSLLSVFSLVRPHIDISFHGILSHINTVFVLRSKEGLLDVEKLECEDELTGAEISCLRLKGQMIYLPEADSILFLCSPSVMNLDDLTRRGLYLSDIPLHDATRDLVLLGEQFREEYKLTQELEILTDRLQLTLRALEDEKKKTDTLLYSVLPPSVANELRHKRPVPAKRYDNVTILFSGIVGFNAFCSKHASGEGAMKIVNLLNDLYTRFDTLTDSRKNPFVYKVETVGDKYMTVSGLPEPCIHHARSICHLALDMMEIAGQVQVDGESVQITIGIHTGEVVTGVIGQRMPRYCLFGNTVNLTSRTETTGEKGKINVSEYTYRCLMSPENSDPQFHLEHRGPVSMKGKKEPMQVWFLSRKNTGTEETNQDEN
Sequence (P19686 1-690 partner): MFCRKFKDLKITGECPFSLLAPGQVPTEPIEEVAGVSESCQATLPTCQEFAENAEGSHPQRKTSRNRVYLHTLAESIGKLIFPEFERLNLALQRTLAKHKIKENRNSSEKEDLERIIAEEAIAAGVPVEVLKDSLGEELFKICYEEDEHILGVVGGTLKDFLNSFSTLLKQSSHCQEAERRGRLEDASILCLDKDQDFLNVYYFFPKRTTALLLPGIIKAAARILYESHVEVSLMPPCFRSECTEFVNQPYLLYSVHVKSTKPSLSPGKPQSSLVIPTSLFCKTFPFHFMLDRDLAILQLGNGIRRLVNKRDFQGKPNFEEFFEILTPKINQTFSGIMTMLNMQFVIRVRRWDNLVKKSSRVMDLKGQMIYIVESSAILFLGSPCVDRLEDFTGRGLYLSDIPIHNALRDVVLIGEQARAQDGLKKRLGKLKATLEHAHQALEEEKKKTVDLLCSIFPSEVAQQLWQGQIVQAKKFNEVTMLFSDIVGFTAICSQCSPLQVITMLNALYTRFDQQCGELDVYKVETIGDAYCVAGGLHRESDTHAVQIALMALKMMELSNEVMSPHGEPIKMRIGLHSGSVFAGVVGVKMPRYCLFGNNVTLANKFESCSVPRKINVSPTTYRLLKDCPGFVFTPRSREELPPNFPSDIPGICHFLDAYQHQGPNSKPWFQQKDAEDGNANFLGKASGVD
Procedure details: Stimulation of sGC enzyme activity (PPi detection, luciferase luminescence)
Conditions used: read-out: EC50 (half-maximal effective concentration), activating action at the sGC enzyme in vitro
pEC50: −log10 of the molar value.
Quantity name: pEC50

Worked set:
Molecule	Tested target	Quantity name	Readout number
C[C@H](CC(=O)O)c1ccc(Cl)c(NC(=O)[C@@H]([C@@H](C)C(F)(F)F)N2CCC3(CC2)CC3)c1 (single isomer, unassigned) [Example 47]	soluble guanylate cyclase (sGC) (Rattus norvegicus)	pEC50	7.09
C[C@H]([C@H](C(=O)Nc1cc(C[C@H](C)C(=O)O)ccc1Cl)N1CCC2(CC1)CC2)C(F)(F)F (single isomer, unassigned) [Example 46]	soluble guanylate cyclase (sGC) (Rattus norvegicus)	pEC50	6.68
C[C@H]([C@H](C(=O)Nc1cc(C[C@H](C)C(=O)O)ccc1Cl)N1CCC(C(F)(F)F)CC1)C(F)(F)F [Example 34]	soluble guanylate cyclase (sGC) (Rattus norvegicus)	pEC50	7.05

A: CCC1CCN([C@@H](C(=O)Nc2cc(CC3(C(=O)O)CC3)ccc2Cl)[C@@H](C)C(F)(F)F)CC1 [Example 26]
B: CC1CCN(C(C(=O)Nc2cc(CC3(C(=O)O)CC3)ccc2F)C(C)C(F)(F)F)CC1 (single isomer, unassigned; (+)) [Example 36]
Please tell me which of the two, A or B , has the higher reported pEC50 value. Your answer should be the label attached to the chosen record.
A
